System: K562
Assay info: NCI tumour cell line growth inhibition, 48 h
Activity calls are given as the source filed them. Rule as the data show it: active = GI50 up to about 1.1 µM and inactive = higher.
# Lookup of reported GI50 keyed by entry

{"Compound": "COC(=O)C(Cc1ccccc1)NC(=O)CCCNC(=O)OCc1ccccc1 (stereo unspecified)", "GI50": "> 100 µM (inactive)"}
{"Compound": "COC(=O)c1c2c(c3[nH]c4ccccc4c3c1C(=O)OC)C(=O)C1=C(C2=O)C2(Cl)C(Cl)C(Cl)C1(Cl)C2(Cl)Cl (stereo unspecified)", "GI50": "2.01 µM (inactive)"}
{"Compound": "OCn1nc2c(C3OCCO3)cc3ccccc3n2c1=S", "GI50": "> 100 µM (inactive)"}
{"Compound": "COc1cccc(/C=C(/C(=O)O)c2cc(OC)c(OC)c(OC)c2)c1", "GI50": "51.8 µM (inactive)"}
{"Compound": "CCOC(=O)c1nc2cc(Cl)ccc2[nH]c1=O", "GI50": "> 100 µM (inactive)"}
{"Compound": "CC(C)(C)N/C(N)=N/C#N", "GI50": "> 100 µM (inactive)"}
{"Compound": "CN(C)C(=S)/N=c1\\ssc(=S)n1-c1ccccc1", "GI50": "17.1 µM (inactive)"}
{"Compound": "O=C(O)c1cc(/N=C/c2ccccc2O)cc(C(=O)O)c1", "GI50": "> 100 µM (inactive)"}
{"Compound": "O=C1CCC(=O)N1CNc1ccc2c(c1)S(=O)(=O)c1ccccc1O2", "GI50": "> 100 µM (inactive)"}
{"Compound": "C=C(/C=C/C=C(/CCC=C(C)C)COC(C)=O)[C@@H]1CC[C@]2([C@H](CCCO)/C(=C(/C)C=O)CC[C@]2(C)O)[C@@H]1O", "GI50": "2.92 µM (inactive)"}
{"Compound": "O=C1CCCC2=C1CC1=C(CCCC1=O)N2c1cccc([N+](=O)[O-])c1", "GI50": "> 100 µM (inactive)"}
{"Compound": "CCN(CC)CCC(=O)/C=C/c1ccccc1", "GI50": "3.05 µM (inactive)"}
{"Compound": "CC12CCC3C(CCC4CC(OC(=O)Cc5ccc(N(CCCl)CCCl)cc5)CCC43C)C1CCC(=O)N2 (stereo unspecified)", "GI50": "16.9 µM (inactive)"}
{"Compound": "CC(C)=CCC/C(C)=C/CC/C(C)=C/CSc1ccc(Cl)cc1C(=O)O", "GI50": "25.5 µM (inactive)"}
{"Compound": "O=C1C[C@H](CCC(=O)OCc2ccccc2)NC(=O)C[C@H](CCC(=O)OCc2ccccc2)NC(=O)C[C@H](CCC(=O)OCc2ccccc2)N1", "GI50": "> 100 µM (inactive)"}
{"Compound": "CC1=CC(C/C(C)=C/COc2ccc3ccc(=O)oc3c2)OC1=O (stereo unspecified)", "GI50": "59.8 µM (inactive)"}
{"Compound": "CCn1c(CCCc2nc3c(=O)n(C)c(=O)n(C)c3[nH]2)nc2c1c(=O)n(C)c(=O)n2C", "GI50": "75.7 µM (inactive)"}
{"Compound": "CN(C)c1ccc(/C=C2\\N=C(c3ccccc3)N(c3nc4c(Cl)cc(Cl)cc4s3)C2=O)cc1", "GI50": "31.6 µM (inactive)"}
{"Compound": "CC(C)(C)OC(=O)C(C1NC(C(=O)O)C(C)(C)S1)N1C(=O)c2ccccc2C1=O (stereo unspecified)", "GI50": "> 100 µM (inactive)"}
{"Compound": "O=C(O)CCC1C(=O)C2CCN1CC2 (stereo unspecified)", "GI50": "> 100 µM (inactive)"}
{"Compound": "O=C1OCC=C1COC1OC(CO)C(O)C(O)C1O (stereo unspecified)", "GI50": "> 100 µM (inactive)"}

----------
System: ACHN
Assay info: NCI tumour cell line growth inhibition, 48 h
Calls of active or inactive are those of the source. Rule as the data show it: active = GI50 up to about 1.1 µM and inactive = higher.
Labels: true (active), false (inactive)

{"Compound": "COc1c(-c2ccc(F)cc2)oc2cc(O)cc(O)c2c1=O", "System under test": "ACHN", "Category label": "false"}
{"Compound": "O=C(O)CC(Sc1ccccc1)c1ccccc1 (stereo unspecified)", "System under test": "ACHN", "Category label": "false"}
{"Compound": "CCOC(=O)C1(c2ccccc2)CCCNCC1 (stereo unspecified)", "System under test": "ACHN", "Category label": "false"}
{"Compound": "O=C1CCCCCCCCCCOC(=O)CCCCCCCCCCO1", "System under test": "ACHN", "Category label": "false"}
{"Compound": "c1ccc(COC[C@H]2C3OCC([C@H](OCc4ccccc4)[C@H]3OCc3ccccc3)N2Cc2ccccc2)cc1 (stereo partly specified)", "System under test": "ACHN", "Category label": "false"}
{"Compound": "CC[C@]12C=CCN3CCC4(c5cc(/N=N/c6ccccc6)c(OC)cc5N(C)[C@H]4[C@@](O)(C(=O)OC)[C@@H]1OC(C)=O)[C@@H]32 (stereo partly specified)", "System under test": "ACHN", "Category label": "false"}
{"Compound": "O=C(O)/C(=C/C=C/c1ccccc1)c1csc(-c2nc(/C(=C\\C=C\\c3ccccc3)C(=O)O)cs2)n1", "System under test": "ACHN", "Category label": "false"}
{"Compound": "O=C1C[C@H](CCC(=O)OCc2ccccc2)NC(=O)C[C@H](CCC(=O)OCc2ccccc2)NC(=O)C[C@H](CCC(=O)OCc2ccccc2)N1", "System under test": "ACHN", "Category label": "false"}
{"Compound": "CC1(C)OC2[C@@H](CO[C@@]3([C@@H](O)CCO)OC(C)(C)O[C@@H]23)O1 (stereo partly specified)", "System under test": "ACHN", "Category label": "false"}
{"Compound": "CCc1nn(CN2CCOCC2)c(=S)n1/N=C/c1ccc(-c2ccc(Cl)cc2)o1", "System under test": "ACHN", "Category label": "false"}
{"Compound": "Cc1ccc(C2=Nc3ccccc3SC(c3cccc4c3OCO4)C2)cc1 (stereo unspecified)", "System under test": "ACHN", "Category label": "false"}
{"Compound": "CC(=O)OCC1OC(n2c(C)c(/N=N/c3ccc(C)cc3)c(C)c(C#N)c2=S)C(OC(C)=O)C(OC(C)=O)C1OC(C)=O (stereo unspecified)", "System under test": "ACHN", "Category label": "false"}
{"Compound": "COC(=O)C1=C(C(=O)OC)C2(C)OC1C(=O)C21CC1 (stereo unspecified)", "System under test": "ACHN", "Category label": "false"}
{"Compound": "O=C(O)CCC1C(=O)C2CCN1CC2 (stereo unspecified)", "System under test": "ACHN", "Category label": "false"}
{"Compound": "NC(=S)N/N=C1\\C(=O)N(c2cccc([N+](=O)[O-])c2)C(=O)C1C(=O)Nc1cccc([N+](=O)[O-])c1 (stereo unspecified)", "System under test": "ACHN", "Category label": "false"}
{"Compound": "COc1ccc2nc3ccccc3c(NCCCCN(C)CCCl)c2c1", "System under test": "ACHN", "Category label": "true"}
{"Compound": "COC12OC3(C4OC41)C(C(=O)O[C@H]3CO[Si](C)(C)C(C)(C)C)C2C(=O)Oc1ccccc1 (stereo partly specified)", "System under test": "ACHN", "Category label": "false"}
{"Compound": "CCOC(=O)c1cn(-c2ccc([N+](=O)[O-])cc2)c(=S)n2c1nc1ccccc12", "System under test": "ACHN", "Category label": "false"}
{"Compound": "CN(C)CC1CCCC/C1=N/O (stereo unspecified)", "System under test": "ACHN", "Category label": "false"}
{"Compound": "Cc1[nH]c2ccccc2c1C1=NO/C(=N\\O)C(c2c(C)[nH]c3ccccc23)C1 (stereo unspecified)", "System under test": "ACHN", "Category label": "false"}
{"Compound": "Cc1cc(C)nc(Sc2c([N+](=O)[O-])ncn2C)n1", "System under test": "ACHN", "Category label": "false"}
{"Compound": "COP(=O)(OC)C(O)/C=C(\\Cl)c1ccc(Cl)cc1 (stereo unspecified)", "System under test": "ACHN", "Category label": "false"}
{"Compound": "Cn1c(=O)cc(N2CCCC2)[nH]c1=O", "System under test": "ACHN", "Category label": "false"}
{"Compound": "CCOC(=O)NC(Nc1ccc(F)c(F)c1)(C(=O)OCC)C(F)(F)F (stereo unspecified)", "System under test": "ACHN", "Category label": "false"}
{"Compound": "C/C(COc1ccccc1)=N\\NC(N)=S", "System under test": "ACHN", "Category label": "false"}
{"Compound": "O=C(Cc1nc2ccccc2c(=O)n1-c1ccccc1Cl)c1ccncc1", "System under test": "ACHN", "Category label": "false"}
{"Compound": "O=S1(=O)c2ccccc2N(O)C2=NCCN21", "System under test": "ACHN", "Category label": "false"}
{"Compound": "CC(C)(C)C(=O)OC12/C(=N/O)CCCCCC1c1ccccc12 (stereo unspecified)", "System under test": "ACHN", "Category label": "false"}
{"Compound": "O=C(/C=C/c1ccccc1)CCN1CCCCC1", "System under test": "ACHN", "Category label": "false"}
{"Compound": "CCCC(=O)Nc1cc(/C=C/C(=O)N2C[C@H]3C[C@@]34C2=CC(=O)c2[nH]cc(C)c24)n(C)c1", "System under test": "ACHN", "Category label": "true"}
{"Compound": "COc1cc2c(cc1C)NC(=O)/C2=C/c1c(Cl)n(-c2ccccc2)c2ccccc12", "System under test": "ACHN", "Category label": "false"}
{"Compound": "O=C(NCc1ccc2ccc3cccnc3c2n1)c1ccc[n+](Cc2ccccc2)c1", "System under test": "ACHN", "Category label": "false"}
{"Compound": "O=C1CCC(=O)N1CNc1ccc2c(c1)S(=O)(=O)c1ccccc1O2", "System under test": "ACHN", "Category label": "false"}
{"Compound": "COc1cccc(C2=NC(C(C)C)CO2)c1OC (stereo unspecified)", "System under test": "ACHN", "Category label": "false"}
{"Compound": "COC(=O)c1ccc(/C=C2\\Oc3cc(O)ccc3C2=O)cc1", "System under test": "ACHN", "Category label": "false"}
{"Compound": "c1coc(-c2nccc3c2[nH]c2ccccc23)c1", "System under test": "ACHN", "Category label": "false"}
{"Compound": "CC1CCC2(CC1)N=C1CCC(C)CC1C1(CCC(C)CC1)N2 (stereo unspecified)", "System under test": "ACHN", "Category label": "false"}
{"Compound": "COc1ccc(/C=C2\\S/C(=N/Nc3nc(-c4ccccc4)cs3)NC2=O)cc1OC", "System under test": "ACHN", "Category label": "false"}
{"Compound": "C=CCNC1=C2C[C@@H](C)C[C@@H](OC)[C@H](OC(=O)CCN)[C@H](C)/C=C(\\C)[C@@H](OC(N)=O)[C@H](OC)/C=C\\C=C(/C)C(=O)NC(=CC1=O)C2=O", "System under test": "ACHN", "Category label": "false"}
{"Compound": "CN(C)CCCn1c(-c2ccc(Br)cc2)cs/c1=N\\c1ccccc1", "System under test": "ACHN", "Category label": "false"}
{"Compound": "COC(=O)c1cc(O)nc(O)n1", "System under test": "ACHN", "Category label": "false"}

This collection of values is drawn from ChEMBL document CHEMBL1201862.
